Cited source: patent US20160075790A1

Target: T1, human isoleucine zipper-CD40L (IZ-hCD40L) (human, UniProt P29965 113-261)
T1 sequence: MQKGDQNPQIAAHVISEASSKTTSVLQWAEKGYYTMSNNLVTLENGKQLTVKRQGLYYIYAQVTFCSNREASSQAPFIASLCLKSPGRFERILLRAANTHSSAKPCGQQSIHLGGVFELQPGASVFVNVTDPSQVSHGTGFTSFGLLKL
Assay: cell-based or functional assay
quantity: hIZCD40L-driven Human B Cell Proliferation EC50

Exercise: Using the record for BMS2h-494 (other) VL: DIQMTQSPSSLSASVGDRVTITCRASQSIDEDLEWYQQKPGKAPRLLIYSSSWLQSGVPSRFSGSGSGTDFTLTISSLQPEDFATYYCQQYFQYPPTFGQGTKVEIKR , state its measured hIZCD40L-driven Human B Cell Proliferation EC50.
Solution: 6100 nM

Exercise: Give hIZCD40L-driven Human B Cell Proliferation EC50 for the following binder: BMS2h-494-4 (other) VL: EIQMTQSPSSLSASVGDRVTMTCRASQSIDKDLEWYQQKPGKAPRLLIYSSSWLQRGVPSRFSGSGSGTDFTLTISSLRPEDFATYYCQQYFQYPPTLGQGTKVEIKR
Solution: 590 nM

Exercise: Provide only the value of recorded hIZCD40L-driven Human B Cell Proliferation EC50 for BMS2h-719-202 (other) VH: EVQLLESGGGLVQPGGSLRLSCAASGFTFKKYEMMWVRQAPGKGLEWVSSISSDGSFTYYADSVKGRFTISRDNSKNTLYLQMNSLRAEDTAVYYCAEPFTEFDYWGHGTLVTVSS
Solution: 29 nM

Exercise: Identify hIZCD40L-driven Human B Cell Proliferation EC50 associated with the binder BMS2h-723 (other) VH: EVQLLESGGGLVQPGGSLRLSCAASGFTFDLYDMMWVRQAPGKGLEWVSSISDLGTLTYYADSVKGRFTISRDNSKNTLYLQMNSLRAEDTAVYYCAKNGFRVTSNDRRFDYWGQGTLVTVSS
Solution: > 7000 nM

Exercise: For the binder BMS2h-503-2 (other) VL: DIQMTQSPSSLSASVGDRVTITCRASHDIQRYLSWYQQKPGKAPKLLILWGSQLQSGVPSRFSGSGSGTDFTLTISSLQPEDFATYYCGQWWAPPQTFGQGTKVEIKR , report hIZCD40L-driven Human B Cell Proliferation EC50.
Solution: 44 nM

Exercise: Supply reported hIZCD40L-driven Human B Cell Proliferation EC50 belonging to this binder: BMS2h-758 (other) VH: EVQLLESGGGLVQPGGSLRLSCAASGFTFGDYGMNWVRQAPGKGLEWVSHISSNGRFTYYADSVKGRFTISRDNSKNTLYLQMNSLRAEDTAVYYCAETSGYFDYWGQGTLVTVSS
Solution: 5900 nM

Exercise: Quickly give me recorded hIZCD40L-driven Human B Cell Proliferation EC50 for BMS2h-719-13 (other) VH: EVQLLESGGGLVQPGGSLRLSCAASGFTFKRYEMMWVRQAPGKGLEWVSSISSDGSFTYYADSVKGRFTISRDNTKNTLYLQMNSLRAEDTAVYYCADPFTELDYWGHGTLVTVSS
Solution: 50 nM

Exercise: Look up hIZCD40L-driven Human B Cell Proliferation EC50 of BMS2h-572-614 (other) VH: EVQLLESGGGLVQPGGSLRLSCAASGFTFNWQLMGWVRQAPGKGLEWVSGIEGPGDVTYYADSVKGRFTISRDNSKNTLYLQMNSLRAEDTAVYYCVKVGKDAKSDYRGQGTLVTVSS and report it.
Solution: 93 nM

Exercise: Fill in hIZCD40L-driven Human B Cell Proliferation EC50 for record BMS2h-702 (other) VH: EVQLLESGGGLVQPGGSLRLSCAASGFTFAEYEMMWARQAPGKGLEWVSRIAGNGSRTYYADSVKGRFTISRDNSKNTLYLQMNSLRAEDTAVYYCAIMLSHFDYWGQGTLVTVSS
Solution: > 7000 nM

Exercise: For the binder BMS2h-492-6 (other) VL: DIQMTQSPSSLSASVGDRVTITCRASQAIESNLEWYQQKPGKAPKLLIYDASMLQSGVPSRFSGSGSGTDFTLTISSLQPEDFATYYCQQYDVYPPTFGQGTKVEIKR , give its reported hIZCD40L-driven Human B Cell Proliferation EC50.
Solution: 6300 nM

Exercise: Give a short answer stating reported hIZCD40L-driven Human B Cell Proliferation EC50 for BMS2h-572-608 (other) VH: EVQLLESGGGLVQPGGSLRLSCAASGFTFNWELMGWARQAPGKGLEWVSGIEGPGDVTYYADSVKGRFTISRDNSKNTLYLQMNSLRAEDTAVYYCVKVGKESNSDYRGQGTLVTVSS .
Solution: 96 nM

Exercise: Find the measured hIZCD40L-driven Human B Cell Proliferation EC50 of BMS2h-745-1 (other) VH: EVQLLESGGGLVQPGGSLRLSCAASGFTFDNTEMAWVRQAPGKGLEWVSGITEDGNRTYYADSVKGRFTISRDNSKNTLYLQMNSLRAEDTAVYYCAKIRNLHWDVGRQFDYWGQGTLVTVSS and report it.
Solution: > 7000 nM

Exercise: Report measured hIZCD40L-driven Human B Cell Proliferation EC50; entry is BMS2h-719 (other) VH: EVQLLESGGGLVQPGGSLRLSCAASGFTFKRYEMTWVRQAPGKGLEWVSSISSDGSFTYYADSVKGRFTISRDNSKNTLYLQMNSLRAEDTAVYYCAEPFTEFDYWGQGTLVTVSS
Solution: 600 nM

Exercise: Indicate the recorded hIZCD40L-driven Human B Cell Proliferation EC50 value for this binder: BMS2h-725-19 (other) VH: EVQLLESGGGLVQPGGSLRLSCAASGFTFSAYTMGWVRQAPGKGLEWVSLIGDRGSWTYYADSVKGRFTISRDNSKNTLYLQMNSLRAEDTAVYYCADPSDPTKFVYWGQGTLVTVSS
Solution: > 7000 nM

Exercise: Entry BMS2h-572-633 (other, VH dAb, monovalent) VH: EVQLLESGGGLVQPGGSLRLSCAASGFTFNWELMGWARQAPGKGLEWVSGIEGPGDVTYYADSVKGRFTISRDNSKNTLYLQMNSLRAEDTAVYYCVKVGKDAKSDYRGQGTLVTVSS needs its hIZCD40L-driven Human B Cell Proliferation EC50 filled in; supply it.
Solution: 20 nM
